biological target: recombinant human Cox-1 (r-hu Cox-1, PGHS-1) (Homo sapiens); construct: made in house; host or cells: baculovirus/Sf9 insect cells (microsomes); assay: Recombinant human PGHS-1 (r-hu Cox-1) enzyme assay, PGE2 by EIA; type: biochemical; details: at 100 μM; read-out: r-hu COX1 percent inhibition
Sequence (P23219 24-599): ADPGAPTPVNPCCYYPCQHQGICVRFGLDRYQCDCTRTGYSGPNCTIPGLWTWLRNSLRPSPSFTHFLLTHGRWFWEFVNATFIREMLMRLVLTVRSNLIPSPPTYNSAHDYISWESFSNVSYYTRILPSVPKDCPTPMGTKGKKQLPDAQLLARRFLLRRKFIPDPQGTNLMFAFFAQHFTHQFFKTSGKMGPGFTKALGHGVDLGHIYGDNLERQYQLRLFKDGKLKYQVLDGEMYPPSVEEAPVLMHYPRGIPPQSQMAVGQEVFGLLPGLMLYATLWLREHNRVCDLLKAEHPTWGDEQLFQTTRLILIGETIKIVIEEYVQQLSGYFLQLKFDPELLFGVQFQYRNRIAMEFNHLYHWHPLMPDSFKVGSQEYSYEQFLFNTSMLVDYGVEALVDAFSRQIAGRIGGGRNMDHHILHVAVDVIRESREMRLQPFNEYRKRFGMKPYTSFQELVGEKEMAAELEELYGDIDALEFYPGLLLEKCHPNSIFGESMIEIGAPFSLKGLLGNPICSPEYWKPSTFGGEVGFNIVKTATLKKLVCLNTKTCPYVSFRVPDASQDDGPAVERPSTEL
quantity_measured: inhibition at 100 µM (%)

I. CCn1nc(OC2COCCC2=O)c(-c2ccc(F)cc2)c1-c1ccc(S(C)(=O)=O)cc1 (stereo not shown)
II. CS(=O)(=O)c1ccc(-c2c(-c3ccc(F)cc3)c(OCC(=O)c3ccc(F)cc3)nn2CC(=O)c2ccc(F)cc2)cc1
III. CS(=O)(=O)c1ccc(-c2c(-c3ccc(F)cc3)c(OCC(=O)c3ccccc3)nn2CC(=O)c2ccccc2)cc1
IV. CCn1nc(OCC(=O)c2ccc(F)cc2)c(-c2ccc(F)cc2)c1-c1ccc(OC)cc1
[ask] Arrange by inhibition at 100 µM, high to low. // list labels; follow requested order
[reply] I, II, IV, III
(I: 27%, II: 17%, IV: 7%, III: 0%)

---

Here the recorded melting point is given for each entry.

Use the examples below as a reference point.
- molecule: "CC(C)(C)c1coc2c(-c3ccc(F)cc3)c(-c3ccc(S(C)(=O)=O)cc3)nn12"
  melting point: "181 to 182 °C"
- molecule: "NS(=O)(=O)c1ccc(-c2nn3c(-c4ccc(F)cc4)coc3c2-c2ccc(F)cc2)cc1"
  melting point: "235 to 237 °C"
- molecule: "Cc1c(-c2ccc(F)cc2)oc2c(-c3ccc(F)cc3)c(-c3ccc(S(C)(=O)=O)cc3)nn12"
  melting point: "257 to 259 °C"
- molecule: "CS(=O)(=O)c1ccc(-c2nn3c(C(F)(F)F)coc3c2-c2ccc(F)cc2)cc1"
  melting point: "186 to 189 °C"
- molecule: "CS(=O)(=O)c1ccc(-c2c(-c3ccc(F)cc3)nn3c(-c4ccc(F)cc4)coc23)cc1"
  melting point: "289 to 291 °C"
- molecule: "CS(=O)(=O)c1ccc(-c2nn3c(-c4ccc(F)cc4)coc3c2-c2ccc(F)cc2)cc1 [Example 36B]"
  melting point: "200 to 202 °C"
- molecule: "CCc1coc2c(-c3ccc(F)cc3)c(-c3ccc(S(C)(=O)=O)cc3)nn12"
  melting point: "177 to 179 °C"

With those in mind, consider the next molecule.
[ask] Item under review: CC(=O)C(C)Oc1nn(C(C)C(C)=O)c(-c2ccc(S(C)(=O)=O)cc2)c1-c1ccc(F)cc1 (centres unmarked) . Reported melting point?
[reply] 127 to 129 °C

---

Here the recorded melting point is given for each entry.

Use the examples below as a reference point.
- entry_smiles: "CCn1nc(OCC(=O)c2cccs2)c(-c2ccc(F)cc2)c1-c1ccc(S(C)(=O)=O)cc1"
  melting point: "163 to 164 °C"
- entry_smiles: "CS(=O)(=O)c1ccc(-c2c(-c3ccc(F)cc3)c(OCc3ccccc3)nn2Cc2ccccc2)cc1"
  melting point: "174 to 175 °C"
- entry_smiles: "Cc1oc2c(-c3ccc(F)cc3)c(-c3ccc(S(C)(=O)=O)cc3)nn2c1-c1ccc(Cl)s1"
  melting point: "222 to 223 °C"
- entry_smiles: "CC=CC(=O)c1oc2c(-c3ccc(F)cc3)c(-c3ccc(S(C)(=O)=O)cc3)nn2c1C"
  melting point: "197 to 199 °C"

[ask] Item under review: "CS(=O)(=O)c1ccc(-c2nn3c4c(oc3c2-c2ccc(F)cc2)CCCC4)cc1" . Reported melting point?
[reply] 183 to 184 °C
